Biological target: Glutamate NMDA receptor
Assay: Antagonist activity at NMDA receptor in Wistar rat cerebellar granule neurons assessed as inhibition of NMDA-induced intracellular calcium by Fura-2 fluorescence assay
Quantity Name: IC50 (µM)
Field format: number, assumed µM, no unit text.

Smiles Structure	System	U	Value
O=C1CCC[C@@H]2OC[C@H](Cc3c[nH]c4ccccc34)N12	Glutamate NMDA receptor	µM	305
O=C1CCC[C@@H]2OC[C@@H](Cc3c[nH]c4ccccc34)N12	Glutamate NMDA receptor	µM	63.4

# query: IC50 of entry "O=C1CC[C@@H]2OC[C@@H](Cc3c[nH]c4ccccc34)N12"
341

Looking for the measured IC50 of "O=C1CCC[C@H]2OC[C@H](Cc3c[nH]c4ccccc34)N12" , can you help?
429

---

Biological target: Glutamate NMDA receptor
Assay: Antagonist activity at NMDA receptor in Wistar rat cerebellar granule neurons assessed as inhibition of NMDA-induced intracellular calcium by Fura-2 fluorescence assay
pIC50: −log10 of the molar value.
Quantity Name: pIC50

Smiles Structure	pIC50
COC(=O)C[C@@H]1CC(=O)N2[C@@H](Cc3c[nH]c4ccccc34)CO[C@@H]2C1	< 3.35

For the compound "CC[C@H]1CCC(=O)N2[C@@H](Cc3c[nH]c4ccccc34)CO[C@H]12" , what pIC50 is on record?
< 3.35

Data request, read-out pIC50, for "CC[C@H]1CCC(=O)N2[C@H](Cc3c[nH]c4ccccc34)CO[C@H]12"
< 3.35

Fill in the blank: the reported pIC50 of "COC(=O)C[C@H]1CC(=O)N2[C@H](Cc3c[nH]c4ccccc34)CO[C@H]2C1" is ____.
< 3.35

Data request, read-out pIC50, for "COC(=O)C[C@@H]1CC(=O)N2[C@H](Cc3c[nH]c4ccccc34)CO[C@@H]2C1"
< 3.35

Report pIC50 for "CC[C@@H]1CCC(=O)N2[C@H](Cc3c[nH]c4ccccc34)CO[C@@H]12" please.
< 3.35
